Data provenance: paper PMC5567267

tested on: PKD2 (Homo sapiens)
Construct: made in house; host or cells: HEK293T cells, transient transfection with pDEST27-PRKD2, stimulated with 500 nM PDB before lysis
Sequence (Q9BZL6 whole entry): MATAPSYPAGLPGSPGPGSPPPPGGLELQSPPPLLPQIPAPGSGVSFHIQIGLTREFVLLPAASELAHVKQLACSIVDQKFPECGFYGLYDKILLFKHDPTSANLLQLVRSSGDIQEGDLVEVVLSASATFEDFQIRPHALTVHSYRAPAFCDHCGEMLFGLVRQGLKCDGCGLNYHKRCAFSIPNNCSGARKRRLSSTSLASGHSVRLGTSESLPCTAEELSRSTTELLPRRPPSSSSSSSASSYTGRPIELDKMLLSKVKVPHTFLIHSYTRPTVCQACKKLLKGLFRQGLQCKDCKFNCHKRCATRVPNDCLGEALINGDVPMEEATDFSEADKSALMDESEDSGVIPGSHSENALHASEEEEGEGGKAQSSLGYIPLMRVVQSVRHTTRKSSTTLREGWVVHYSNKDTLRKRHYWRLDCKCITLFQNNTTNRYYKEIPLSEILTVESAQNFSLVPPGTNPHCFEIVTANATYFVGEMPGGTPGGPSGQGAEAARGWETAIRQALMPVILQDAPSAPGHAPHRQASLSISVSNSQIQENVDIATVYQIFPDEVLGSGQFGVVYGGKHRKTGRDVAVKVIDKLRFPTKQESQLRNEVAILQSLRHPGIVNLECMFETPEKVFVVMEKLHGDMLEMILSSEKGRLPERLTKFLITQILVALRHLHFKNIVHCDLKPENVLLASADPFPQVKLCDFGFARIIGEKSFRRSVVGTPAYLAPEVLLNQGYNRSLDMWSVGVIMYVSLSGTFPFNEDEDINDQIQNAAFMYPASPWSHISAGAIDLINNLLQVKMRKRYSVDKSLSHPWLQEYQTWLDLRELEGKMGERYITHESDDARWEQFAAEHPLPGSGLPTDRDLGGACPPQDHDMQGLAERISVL
measurement protocol: PKD2 screening assay (in vitro radiometric kinase assay)
Type: biochemical
experimental conditions: 10 min; ESI table, initial screening of all analogues at 1µM; read-out: % PKD2 activity remaining (1µM) (average ±SD)
test readout: remaining activity at 1 µM (%)
Answer format: numeric, % implied, no suffix.

What remaining activity at 1 µM value was documented for this compound, CCCCNc1nc(N)c2c(-c3ccccc3)nn(C(C)(C)C)c2n1 [Compound 13a] ?
77

Next:
Bench note: what remaining activity at 1 µM did CC(C)(C)n1nc(Cc2cccc3ccccc23)c2c(N)ncnc21 [Compound 1, reference compound] show?
23

// query remaining activity at 1 µM value for entry `CC(C)(C)n1nc(-c2cc3ccccc3s2)c2c(N)ncnc21`
53

Look up remaining activity at 1 µM for this compound: `CC(C)(C)n1nc(Cc2ccccc2Cl)c2c(N)ncnc21`
41

Which remaining activity at 1 µM is reported for this compound? CCCCNc1nc(N)c2c(-c3cccc4ccccc34)nn(C(C)(C)C)c2n1 [Compound 13h]
89

Find the recorded remaining activity at 1 µM belonging to `CC(C)(C)n1nc(Cc2cccc(Br)c2)c2c(N)ncnc21` and report it.
59

Quick check: remaining activity at 1 µM of CCCCNc1nc(N)c2c(-c3cccc(C(F)(F)F)c3)nn(C(C)(C)C)c2n1 [Compound 13f] ?
91
